Recorded measurements of growth inhibition, one per entry
PROTOCOL SUMMARY: NCI Yeast Anticancer Drug Screen. Data for the bub3 strain (AID 167)
MEASUREMENT CONTEXT: S. cerevisiae bub3 mutant strain, at 50.0 µM, stronger effect = higher value
Compounds without any hit were thinned out: in the full panel of roughly 79,000, 15% have a hit.
Please give a number only; it is taken to be in %.

(Q) So what does the record say about growth inhibition for CC(=O)OCC/C=C\CCCOC(C)=O ?
(A) 8.3

(Q) So what does the record say about growth inhibition for C/C(=C(/C)c1cc[n+](C)cc1)c1cc[n+](C)cc1 ?
(A) 56.3

(Q) So what does the record say about growth inhibition for [N-]=[N+]=Nc1ccccc1C(=O)N1C(=O)c2ccccc2C(=O)N(C(=O)c2ccccc2N=[N+]=[N-])c2ccccc21 ?
(A) 11.9

(Q) So what does the record say about growth inhibition for C=C1C(=O)OC2CC3(CO3)C3C(O)C(O)CC3(C)CC12 (stereo unspecified) ?
(A) -42.5

(Q) So what does the record say about growth inhibition for COC(=O)C12C3C4C1C1C2C3C41C(=O)OC(C)(C)C (stereo unspecified) ?
(A) 23.9

(Q) So what does the record say about growth inhibition for CC(=O)/C(=C\c1ccccc1F)C(=O)CCN(C)C ?
(A) 13.6

(Q) So what does the record say about growth inhibition for CC1(C)OC2COC(c3[nH]nc4c(=O)[nH]c(=O)[nH]c34)C2O1 (stereo unspecified) ?
(A) -64.3

(Q) So what does the record say about growth inhibition for O=C(Cn1c2c(c3ccccc31)CCCC2)NC1CCCCC1 ?
(A) 1.25

---

Recorded measurements of growth inhibition, one per entry
PROTOCOL SUMMARY: NCI Yeast Anticancer Drug Screen. Data for the bub3 strain (AID 167)
MEASUREMENT CONTEXT: S. cerevisiae bub3 mutant strain, at 50.0 µM, stronger effect = higher value
This is part of a sample that, as a whole, favours compounds with a hit. Of some 79,000 tested, about 15% had one in any assay.
Please give a number only; it is taken to be in %.

# count of solved cases: 5
[[record]]
compound = "S=C(S)NCCCn1ccnc1"
readout = "growth inhibition"
reported_measurement = -30.7

[[record]]
compound = "COc1ccc(C2=NN(C(C)=O)C(c3cc(OC)c(OC)cc3N)S2)cc1OC (stereo not given) (tested in a mixture with another compound)"
readout = "growth inhibition"
reported_measurement = 12.9

[[record]]
compound = "CC(=O)c1c(C)c(C)c(=O)n(C/C=C(\\C)CCC=C(C)C)c1O"
readout = "growth inhibition"
reported_measurement = 98.3

[[record]]
compound = "NC(=O)/C(=C\\c1ccncc1)c1cccc2ccccc12"
readout = "growth inhibition"
reported_measurement = -44

[[record]]
compound = "O=C1CSC(c2ccccc2C(F)(F)F)N1c1nncs1 (stereo not given)"
readout = "growth inhibition"
reported_measurement = -39.2


(Q) So what does the record say about growth inhibition for Cn1c(=O)c2c(nc(OCC[N+](C)(C)C)n2C)n(C)c1=O ?
(A) 1.85

(Q) So what does the record say about growth inhibition for CCCCOc1ccc(C=Nc2ccc(C)cc2)cc1 ?
(A) 7.3

(Q) So what does the record say about growth inhibition for CC(=O)Oc1ccc(-c2c3ccccc3cc3c2ccc2ccccc23)cc1 ?
(A) -2.7

(Q) So what does the record say about growth inhibition for CCCCCCCCCCCCC#N ?
(A) -5.2

(Q) So what does the record say about growth inhibition for OC(C/C=N/N=C/CC(O)(C(F)(F)Cl)C(F)(F)Cl)(C(F)(F)Cl)C(F)(F)Cl ?
(A) 34.5

(Q) So what does the record say about growth inhibition for O=C(O)c1ccn(-c2cccc(-n3ccc(C(=O)O)n3)n2)n1 ?
(A) -15.4

(Q) So what does the record say about growth inhibition for COc1cc(C)c(/C=C/C(=O)N2C(=O)OC[C@@H]2c2ccccc2)c(C)c1 ?
(A) 19.1

(Q) So what does the record say about growth inhibition for COc1cc(NCCC2CCCCN2C)c2ncccc2c1 (stereo not given) ?
(A) 13.6

(Q) So what does the record say about growth inhibition for CN=C1Nc2ccc(Cl)cc2C(c2ccccc2)=NN1C ?
(A) 6.85

(Q) So what does the record say about growth inhibition for Cc1cc2nc(C(O)C(O)C(O)C(O)c3nc4cc(C)c(C)cc4[nH]3)[nH]c2cc1C (stereo not given) ?
(A) -8.65

(Q) So what does the record say about growth inhibition for N#CC1(c2ccccc2)C(c2ccccc2)CC(O)(c2ccccc2)C(C(=O)c2ccccc2)C1c1ccccc1 (stereo not given) ?
(A) -1.1
